Values were extracted from PubChem BioAssay (Tox21).

# PROTOCOL_NOTES: Caspase-3/7 induction in CHO-K1 cells by small molecules, qHTS cell viability counter screen (AID 1346979); note: nearly all actives have a fitted effect of over 35% in size
# RECORDED_CONDITIONS: CellTiter-Fluor fluorescence, 17 h; series mostly up to 92.4 µM
Inconclusive results are not listed. Calls of active or inactive are those of the source. Calls come from the whole dose curve; as a rule, active = well fitted cell-killing curve with a large enough effect in the repeat runs; inconclusive = weak or mixed curves, or effect the other way; inactive = no such curve, though single readings can be large or run the other way.
The reply should name one outcome from true (1) = active, false (0) = inactive

1. CC(C)Oc1cc(-n2nc(C(C)(C)C)oc2=O)c(Cl)cc1Cl: true (1)
2. S=C1NCCN1: false (0)
3. CCCCC(CC)COC(=O)c1ccc(C(=O)OCC(CC)CCCC)c(C(=O)OCC(CC)CCCC)c1 (configuration not stated): false (0)
4. CCN(CC)N=O: false (0)
5. CC(C)N(C(=O)SCC(Cl)=C(Cl)Cl)C(C)C: false (0)
6. Cc1ccccc1[N+](=O)[O-]: false (0)

Okay, next one:
Enquiry: Check the results log: what was the call for `Nc1ccc(Cl)c(Cl)c1` ?
Return: false (0)

###

# PROTOCOL_NOTES: qHTS assay to identify small molecule agonists of the AP-1 signaling pathway (AID 1159526)
# RECORDED_CONDITIONS: ME-180 (cervical carcinoma) AP-1-bla reporter, beta-lactamase FRET ratio, 5 h; series mostly up to 76.8 µM
Records with an inconclusive call do not appear. The source made the active and inactive calls. The call rests on the fitted dose curve.
MEASUREMENT_KIND: outcome

1. c1ccc(NNc2ccccc2)cc1: inactive
2. OCC(O)CO: inactive
3. c1ccc(P(c2ccccc2)c2ccccc2)cc1: inactive
4. C=CCc1ccc(OC)cc1: inactive

###

# PROTOCOL_NOTES: qHTS assay for identifying genotoxic compounds that show differential cytotoxicity against isogenic chicken DT40 cell lines with known DNA damage response pathways - Rev3 mutant cell line (AID 743014); note: nearly all actives have a fitted effect of over 55% in size; note: potency is the fitted concentration of half-maximal effect
# RECORDED_CONDITIONS: chicken DT40 Rev3-/- viability, CellTiter-Glo, 40 h; series mostly up to 68.4 µM
Inconclusive results are not listed. The source made the active and inactive calls. Calls follow the shape of the dose curve; as a rule, active = well fitted cell-killing curve with a large enough effect in the repeat runs; inconclusive = weak or mixed curves, or effect the other way; inactive = no such curve, though single readings can be large or run the other way.
MEASUREMENT_KIND: Potency

Please review the following examples before continuing.
1) C#C[C@]1(O)CC[C@H]2[C@@H]3CCC4=CC(=O)CC[C@]4(C)[C@H]3CC[C@@]21C: inactive
2) Cc1cc(Cl)ccc1OCCCC(=O)O: inactive
3) Cc1ccc(OP(=O)(Oc2ccc(C)cc2)Oc2ccc(C)cc2)cc1: 38.6 µM (active)
4) CNC(=O)Oc1cccc2c1OC(C)(C)O2: inactive
5) O=P(O)(O)CCCl: inactive
6) CCCCCCCCCCCOC(=O)c1ccccc1C(=O)OCCCCCCCCCCC: inactive
7) OCC(O)CO: inactive
8) CCC(CC)Nc1c([N+](=O)[O-])cc(C)c(C)c1[N+](=O)[O-]: inactive

Please look at the items below and tell me Potency for each one, in order.
1. Nc1ccc(Cl)c(Cl)c1
2. COc1ccc(C=O)cc1
3. COC(=O)c1sccc1S(=O)(=O)NC(=O)Nc1nc(C)nc(OC)n1
4. NNC(N)=S
5. O=S(=O)(Oc1ccc(Cl)cc1)c1ccc(Cl)cc1

Return:
1: inactive; 2: inactive; 3: inactive; 4: 20.1 µM (active); 5: inactive

###

# PROTOCOL_NOTES: qHTS assay for small molecule disruptors of the mitochondrial membrane potential - cell viability (AID 720634);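 note: human HepG2 liver cancer cells; nearly all actives have a fitted effect of over 20% in size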
# RECORDED_CONDITIONS: HepG2 viability, ATP luminescence (CellTiter-Glo), 1 h; series mostly up to 83.2 µM
Inconclusive results are not listed. Activity calls are given as the source filed them. Calls come from the whole dose curve.
MEASUREMENT_KIND: outcome

Please review the following examples before continuing.
1. NNC(N)=S: inactive
2. COC(=O)c1sccc1S(=O)(=O)NC(=O)Nc1nc(C)nc(OC)n1: inactive
3. C=CC(=O)OCCO: inactive
4. O=C(O)CC[N+](=O)[O-]: inactive

Please look at the items below and tell me outcome for each one, in order.
1. CCCCCCOC(=O)c1ccccc1C(=O)OCCCCCC
2. CC(C)(c1cc(Cl)c(O)c(Cl)c1)c1cc(Cl)c(O)c(Cl)c1
3. CNC(=O)N(C)c1nnc(C(C)(C)C)s1
4. O=S(=O)(Oc1ccc(Cl)cc1)c1ccc(Cl)cc1
5. O=Cc1ccco1
6. CCCCN(CCCC)N=O

Return:
["inactive", "inactive", "inactive", "inactive", "inactive", "inactive"]
